Reported growth inhibition is given for each of the following molecules.
# method notes: NCI Yeast Anticancer Drug Screen. Data for the cln2 rad14 strain (AID 165);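 also: 0% = growth equal to vehicle treated cultures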
# assay conditions: S. cerevisiae cln2 rad14 strain, at 50.0 µM, stronger effect = higher value
About 79,000 compounds went through this panel and 15% of them were active in at least one assay; those are over-represented in the sample as a whole.
Express it in %; write the number only.

[
  {
    "molecule": "O=C(O)C1c2ccccc2-c2ccccc21",
    "reported metric": "growth inhibition",
    "assay result": -37.7
  },
  {
    "molecule": "CCN(CC)C(=O)Cn1c(C)cc2ccccc21",
    "reported metric": "growth inhibition",
    "assay result": -2.75
  },
  {
    "molecule": "CC(C(=O)c1ccc(Cl)cc1)/C(=N/NC(=O)NN)C(=O)Nc1cccc(C(F)(F)F)c1 (stereo not drawn)",
    "reported metric": "growth inhibition",
    "assay result": -56
  },
  {
    "molecule": "O=C1CC2CCCCC2CC1c1ccc(OCc2ccccc2)c(OCc2ccccc2)c1 (stereo not drawn)",
    "reported metric": "growth inhibition",
    "assay result": 9.1
  },
  {
    "molecule": "Cc1nc2c(cnn2C)c(=O)n1-c1ccccc1Cl",
    "reported metric": "growth inhibition",
    "assay result": 41
  }
]

Which growth inhibition value belongs to COc1ccc(-c2cc(-c3ccccc3)c(C#N)c(=O)n2C2OC(CO)C(O)C(O)C2O)cc1 (stereo not drawn) ?
12.8

Which growth inhibition value belongs to `Fc1ccc(NC(=S)NCCN2CCCC2)cc1` ?
3.75

Which growth inhibition value belongs to `FC(F)(F)C(F)(F)C(F)(F)C(F)(F)C(F)(F)C(F)(F)C(F)(F)c1noc(C(F)(F)C(F)(F)C(F)(F)C(F)(F)C(F)(F)C(F)(F)C(F)(F)F)n1` ?
-5.25

Which growth inhibition value belongs to `Cc1cccc(N2CCN(S(C)(=O)=O)CC2)c1` ?
18.4

Which growth inhibition value belongs to CC(=O)CCC1(C)CCCC(C)(C)CC1=O (stereo not drawn) ?
-9.55

Which growth inhibition value belongs to `Cn1nc(NC(=O)c2cc(N)nn2C)cc1C(=O)Nc1ccc2cc(S(=O)(=O)O)cc(S(=O)(=O)O)c2c1` ?
7.65
